Origin of the recorded values: patent EP0126043A1

System: S. pneumoniae
Assay: Inhibition of adherence of pneumococci to human pharyngeal epithelium cells (bacteria preincubated with free receptor)
Type: cell-based
Conditions: Streptococcus pneumoniae, read-out: Adherence % of control Average
Method: Two strains of S. Pneumoniae, EF3114 and EF 10276 (both of the capsular type 6A isolated from the nasopharynx of patients having inflammation in the middle ear) were maintained in a lyophilized state. […] For inhibition of adhesion the bacterium concentration giving an average adhesion value of 20-300 bacteria per cell was determined. […]
Exercise: state measured activity at 10000 µg/mL for each of the compounds provided.
Return type: number; implicit unit %.

q: Please give measured activity at 10000 µg/mL of the following entry: "CO[C@@H]1O[C@H](CO)[C@H](O)[C@H](O[C@@H]2O[C@H](CO)[C@@H](O[C@@H]3O[C@H](CO)[C@H](O)[C@H](O)[C@H]3O)[C@H](O)[C@H]2NC(C)=O)[C@H]1O"
a: 2

q: Identify activity at 10000 µg/mL associated with the compound CC(=O)N[C@H]1C(O)O[C@H](CO)[C@@H](O[C@@H]2O[C@H](CO)[C@H](O)[C@H](O)[C@H]2O)[C@@H]1O (stereo partly shown) [Substance 10, N-acetyllactose amine, reference compound]
a: 127

q: Kindly indicate its recorded activity at 10000 µg/mL. Item: "CO[C@H]1O[C@H](CO)[C@@H](O[C@@H]2O[C@H](CO)[C@H](O)[C@H](O)[C@H]2O)[C@H](O)[C@H]1NC(C)=O"
a: 129

q: Using known records, supply activity at 10000 µg/mL for "CCO[C@@H]1O[C@H](CO)[C@@H](O[C@@H]2O[C@H](CO)[C@H](O)[C@H](O)[C@H]2O)[C@H](O)[C@H]1NC(C)=O"
a: 31

q: Kindly indicate its recorded activity at 10000 µg/mL. Item: "CO[C@@H]1O[C@H](CO)[C@H](O[C@@H]2O[C@H](CO)[C@@H](O)[C@H](O)[C@H]2NC(C)=O)[C@H](O)[C@H]1O"
a: 75

q: Let me know recorded activity at 10000 µg/mL for "CCO[C@@H]1O[C@H](CO)[C@@H](O[C@@H]2O[C@H](CO)[C@H](O)[C@H](O)[C@H]2O)[C@H](O)[C@H]1O" , thanks.
a: 63

q: Give me measured activity at 10000 µg/mL, please, for this compound: "CO[C@@H]1O[C@H](CO)[C@H](O)[C@H](O[C@@H]2O[C@H](CO)[C@@H](O)[C@H](O)[C@H]2NC(C)=O)[C@H]1O"
a: 4

---

Give measured activity at 1000 µg/mL for each item. Keep answers brief.
Test system: S. pneumoniae
Experiment: Inhibition of adherence of pneumococci to human pharyngeal epithelium cells (bacteria preincubated with free receptor)
Format: cell-based
Settings: Streptococcus pneumoniae, read-out: Adherence % of control Average

q: Recall and state the measured activity at 1000 µg/mL for CO[C@@H]1O[C@H](CO)[C@H](O[C@@H]2O[C@H](CO)[C@@H](O)[C@H](O)[C@H]2NC(C)=O)[C@H](O)[C@H]1O [Substance 11] .
a: 72%

q: Give activity at 1000 µg/mL for the following compound: CC(=O)N[C@H]1[C@H](O[C@H]2[C@@H](O)[C@@H](CO)O[C@@H](O[C@H]3[C@H](O)[C@@H](O)C(O)O[C@@H]3CO)[C@@H]2O)O[C@H](CO)[C@@H](O)[C@@H]1O[C@@H]1O[C@H](CO)[C@H](O)[C@H](O)[C@H]1O (some centres unmarked) [Substance 6, Lactotetraose]
a: 25%
